tested on: MAP kinase cascade activation; assay: Reporter activity reflecting MAP kinase cascade activation, corrected using an internal control (Elk1-GAL4 luciferase reporter in 293-EBNA cells); type: cell-based, human; details: 50 ng/well expression plasmid; 293-EBNA cells; 24 hours
Reported Reporter activity corrected with internal control, as a factor of null vector (S/B value) values are given for each entry in this list.
Answer as a number with no unit attached.

Completed entries (count: 2):
*Q* Looking for the measured Reporter activity corrected with internal control, as a factor of null vector (S/B value) of 60 (protein, listed as Homo sapiens) MLGSGFKAERLRVNLRLVINRLKLLEKKKTELAQKARKEIADYLAAGKDERARIRVEHIIREDYLVEAMEILELYCDLLLARFGLIQSMKELDSGLAESVSTLIWAAPRLQSEVAELKIVADQLCAKYSKEYGKLCRTNQIGTVNDRLMHKLSVEAPPKILVERYLIEIAKNYNVPYEPDSVVMVPPQECERMGEALWEDHQRWLDSGREHVVKHPSLVLRFQT , can you help?
*A* 2.6

*Q* Looking for the measured Reporter activity corrected with internal control, as a factor of null vector (S/B value) of 30 (protein, listed as Homo sapiens) MDARWWAVVVLAAFPSLGAGGETPEAPPESWTQLWFFRFVVNAAGYASFMVPGYLLVQYFRRKNYLETGRGLCFPLVKACVFGNEPKASDEVPLAPRTEAAETTPMWQALKLLFCATGLQVSYLTWGVLQERVMTRSYGATATSPGERFTDSQFLVLMNRVLALIVAGLSCVLCKQPRHGAPMYRYSFASLSNVLSSWCQYEALKFVSFPTQVLAKASKVIPVMLMGKLVSRRSYEHWEYLTATLISIGVSMFLLSSGPEPRSSPATTLSGLFTVGSLLEQGALLEGTRFMGRHSEFAAHALLLSICSACGQLFIFYTIGQFGAAVFTIIMTLRQAFAILLSCLLYGHTVTVVGGLGVAVVFAALLLRVYARGRLKQRGKKAVPVESPVQKV , can you help?
*A* 6.3

Pending molecule:
*Q* Looking for the measured Reporter activity corrected with internal control, as a factor of null vector (S/B value) of 52 (protein, listed as Homo sapiens) MAASRLELNLVRLLSRCEAMAAEKRDPDEWRLEKYVGALEDMLQALKVHASKPASEVINEYSWKVDFLKGMLQAEKLTSSSEKALANQFLAPGRVPTTARERVPATKTVHLQSRARYTSEMRSELLGTDSAEPEMDVRKRTGVAGSQPVSEKQSAAELDLVLQRHQNLQEKLAEEMLGLARSLKTNTLAAQSVIKKDNQTLSHSLKMADQNLEKLKTESERLEQHTQKSVNWLLWAMLIIVCFIFISMILFIRIMPKLK , can you help?
*A* 3.6

All figures here come from patent US20030092037A1.
